procedure_summary: Plasma pharmacokinetics of CC-115
Type: in vivo, human
reported_conditions: human, plasma, oral, 10 mg, Plasma Cmax, mean (CV%), first dose, 10 mg BID, n = 6
quantity_name: Cmax (ng/mL)
Number in ng/mL, nothing else.

Using known records, supply Cmax for `CCN1C(=O)CNc2ncc(-c3ccc(-c4nc[nH]n4)nc3C)nc21`
51.8

* * *

procedure_summary: Plasma pharmacokinetics of CC-115
Type: in vivo, human
reported_conditions: human, plasma, oral, 16 mg
quantity_name: Vd/F (L)
Number in L, nothing else.

Using known records, supply Vd/F for CCN1C(=O)CNc2ncc(-c3ccc(-c4nc[nH]n4)nc3C)nc21 [CC-115]
264

* * *

procedure_summary: Plasma pharmacokinetics of CC-115
Format: in vivo, human
reported_conditions: human, plasma, oral, 40 mg
quantity_name: Vd/F

Using known records, supply Vd/F for `CCN1C(=O)CNc2ncc(-c3ccc(-c4nc[nH]n4)nc3C)nc21`
201 L

* * *

procedure_summary: Plasma pharmacokinetics of CC-115
Format: in vivo, human
reported_conditions: human, plasma, oral, 15 mg, Plasma Tmax, median (min, max), multiple doses, 15 mg BID, n = 5
quantity_name: Tmax (h)
Number in h, nothing else.

Using known records, supply Tmax for CCN1C(=O)CNc2ncc(-c3ccc(-c4nc[nH]n4)nc3C)nc21 [CC-115]
1.52

* * *

procedure_summary: Plasma pharmacokinetics of CC-115
Type: in vivo, human
reported_conditions: human, plasma, oral, 10 mg
quantity_name: AUC(0-inf) (ng·h/mL)
Number in ng·h/mL, nothing else.

Using known records, supply AUC(0-inf) for CCN1C(=O)CNc2ncc(-c3ccc(-c4nc[nH]n4)nc3C)nc21 [CC-115]
605

* * *

procedure_summary: Plasma pharmacokinetics of CC-115
Type: in vivo, human
reported_conditions: human, plasma, oral, 15 mg
quantity_name: AUC(0-inf)
Give me the value, and tack the unit on after it.

Using known records, supply AUC(0-inf) for `CCN1C(=O)CNc2ncc(-c3ccc(-c4nc[nH]n4)nc3C)nc21`
1310 ng·h/mL

* * *

procedure_summary: Plasma pharmacokinetics of CC-115
Assay type: in vivo, human
reported_conditions: human, plasma, oral, 8 mg, Plasma Cmax, mean (CV%), first dose, 8 mg QD, n = 6
quantity_name: Cmax (ng/mL)
Number in ng/mL, nothing else.

Using known records, supply Cmax for `CCN1C(=O)CNc2ncc(-c3ccc(-c4nc[nH]n4)nc3C)nc21`
36.1

* * *

procedure_summary: Plasma pharmacokinetics of CC-115
Format: in vivo, human
reported_conditions: human, plasma, oral, 16 mg, Plasma Cmax, mean (CV%), first dose, 16 mg QD, n = 6
quantity_name: Cmax (ng/mL)
Number in ng/mL, nothing else.

Using known records, supply Cmax for `CCN1C(=O)CNc2ncc(-c3ccc(-c4nc[nH]n4)nc3C)nc21`
88.7

* * *

procedure_summary: Plasma pharmacokinetics of CC-115
Assay type: in vivo, human
reported_conditions: human, plasma, oral, 25 mg
quantity_name: AUC(0-inf) (ng·h/mL)
Number in ng·h/mL, nothing else.

Using known records, supply AUC(0-inf) for CCN1C(=O)CNc2ncc(-c3ccc(-c4nc[nH]n4)nc3C)nc21 [CC-115]
1910

* * *

procedure_summary: Plasma pharmacokinetics of CC-115
Format: in vivo, human
reported_conditions: human, plasma, oral, 25 mg
quantity_name: Vd/F (L)
Number in L, nothing else.

Using known records, supply Vd/F for `CCN1C(=O)CNc2ncc(-c3ccc(-c4nc[nH]n4)nc3C)nc21`
149
